Cited source: ChEMBL document CHEMBL1148604

Reported IC50 by item:
TEST SYSTEM: Mycobacterial beta-ketoacyl-[acyl-carrier-protein] synthase III (Mycobacterium tuberculosis, UniProt P9WNG3)
Sequence (P9WNG3 whole entry): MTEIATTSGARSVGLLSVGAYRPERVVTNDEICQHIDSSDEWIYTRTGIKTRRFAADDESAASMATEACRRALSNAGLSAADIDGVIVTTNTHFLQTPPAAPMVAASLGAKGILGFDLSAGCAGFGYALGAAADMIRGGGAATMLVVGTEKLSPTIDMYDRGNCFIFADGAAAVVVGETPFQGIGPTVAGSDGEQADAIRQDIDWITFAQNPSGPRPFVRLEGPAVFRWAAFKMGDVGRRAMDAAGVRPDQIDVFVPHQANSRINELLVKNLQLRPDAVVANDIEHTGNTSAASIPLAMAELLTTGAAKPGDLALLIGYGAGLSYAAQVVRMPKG
RUN DESCRIPTION: Inhibitory activity against FabH from Mycobacterium tuberculosis H37Rv

[[record]]
molecule = "CCCCCCCCCCCCC1(C)SC(O)=C(C)C1=O (configuration not stated)"
test_result = "50 µM"

[[record]]
molecule = "CC1=C(O)SC(C)(C(C)c2ccccc2)C1=O (configuration not stated)"
test_result = "> 1000 µM"

[[record]]
molecule = "CCCCCCCCCCCC1(C)SC(O)=C(C)C1=O (configuration not stated)"
test_result = "100 µM"

[[record]]
molecule = "C=CCCC1(C)SC(=O)C(C)=C1O (configuration not stated)"
test_result = "> 1000 µM"

[[record]]
molecule = "CC1=C(O)C(C)(CC2CCC2)SC1=O (configuration not stated)"
test_result = "> 1000 µM"


Ask: # return recorded IC50 for entry CC1=C(O)C(C)(Cc2ccc(C(C)(C)C)cc2)SC1=O (configuration not stated)
Reply: > 100 µM

Ask: For CC1=C(O)C(C)(Cc2ccc(Cl)cc2Cl)SC1=O (configuration not stated) , write its IC50.
Reply: > 100 µM

Ask: Hello, please tell me recorded IC50 for this one: CC1=C(O)C(C)(CCCc2ccccc2)SC1=O (configuration not stated)
Reply: > 1000 µM

Ask: Kindly indicate its recorded IC50. Item: CC1=C(O)C(C)(Cc2cccc(Cl)c2)SC1=O (configuration not stated)
Reply: > 1000 µM

Ask: Note IC50 for the molecule shown: CC1=C(O)C(C)(Cc2ccccc2C)SC1=O (configuration not stated)
Reply: > 1000 µM

Ask: Quote IC50 reported for CC1=C(O)C(C)(Cc2ccc(Cl)c(Cl)c2)SC1=O (configuration not stated) please.
Reply: > 100 µM

Ask: Please give measured IC50 of the following entry: CCCCCCCCCCC1(C)SC(O)=C(C)C1=O (configuration not stated)
Reply: > 100 µM
